pIC50 values for Hepatocyte growth factor receptor (Homo sapiens, UniProt P08581) compiled from several publications are listed below.
pIC50: −log10 of the molar value.

Recorded pIC50, per entry:
>  <molecule>
CC(c1ccc2nc(NC(=O)C3CC3)cn2n1)c1nnc2ccc(-c3cccc(C(N)=O)c3)cn12 (stereo not drawn)

>  <measurement_label>
pIC50

>  <result_value>
> 7.52

$$$$
>  <molecule>
Cn1cc(-c2ccc3nnc(Cc4cc5cccnc5cc4F)n3n2)cn1

>  <measurement_label>
pIC50

>  <result_value>
> 7.00

$$$$
>  <molecule>
Cn1cc(-c2cnc3ccc(Cc4nnc5sc(CNCC(F)(F)F)nn45)cc3c2)cn1

>  <measurement_label>
pIC50

>  <result_value>
> 7.00

$$$$

Task: Report pIC50 for "CCOc1ccn(-c2ccc(F)cc2)c(=O)c1C(=O)Nc1ccc(Oc2ncnc3cc(OCCCN4CCOCC4)c4c(c23)OCCO4)c(F)c1" tested on Hepatocyte growth factor receptor (Homo sapiens, UniProt P08581).
Result: ≥ 7.30

Task: Report pIC50 for Nc1ncnc2c1c(-c1cccc(OC[C@@H]3CCCO3)c1F)cn2C1CC2(CNC(=O)O2)C1 (stereo partly drawn) tested on Hepatocyte growth factor receptor (Homo sapiens, UniProt P08581).
Result: < 5.00

Task: Report pIC50 for "Nc1ncc(-c2cnn([C@@H]3CN[C@@H](C(=O)N4CCOCC4)C3)c2)cc1-c1nc2ccccc2s1" tested on Hepatocyte growth factor receptor (Homo sapiens, UniProt P08581).
Result: ≥ 7.00

Task: Report pIC50 for "CCOc1ccn(-c2ccc(F)cc2)c(=O)c1C(=O)Nc1ccc(Oc2ccnc3cc(OCCCN4CCCCC4)c4c(c23)OCCO4)cc1Cl" tested on Hepatocyte growth factor receptor (Homo sapiens, UniProt P08581).
Result: ≥ 7.30

Task: Report pIC50 for "Cn1ncc2ccc(-c3n[nH]c4c3Cc3sc(-c5ccc(S(=O)(=O)N6CCOCC6)cc5)cc3-4)cc21" tested on Hepatocyte growth factor receptor (Homo sapiens, UniProt P08581).
Result: < 6.00

Task: Report pIC50 for "CCOC(=O)Nc1cccc(Cn2nc(-c3cccc(CNC(=O)COC)c3)ccc2=O)c1" tested on Hepatocyte growth factor receptor (Homo sapiens, UniProt P08581).
Result: 6.00 to 8.00

Task: Report pIC50 for "Cc1ccc2nnc(Cc3ccc4ncc(-c5cnn(CCN(C)C)c5)cc4c3)n2n1" tested on Hepatocyte growth factor receptor (Homo sapiens, UniProt P08581).
Result: > 7.00

Task: Report pIC50 for "CCOC(=O)Nc1cccc(Cn2nc(-c3ccc(CNC(=O)CCN(C)C)cc3)ccc2=O)c1" tested on Hepatocyte growth factor receptor (Homo sapiens, UniProt P08581).
Result: 6.00 to 8.00

Task: Report pIC50 for "Cn1cc(-c2cc(Oc3cc(F)c(NC(=O)c4c[nH]cc(-c5ccc(F)cc5)c4=O)cc3F)ccn2)cn1" tested on Hepatocyte growth factor receptor (Homo sapiens, UniProt P08581).
Result: ≥ 7.00

Task: Report pIC50 for "Cc1c(NC(=O)Nc2ccc(Oc3ccnc(-c4cnn(C)c4)c3)cc2F)cnn1C(C)C" tested on Hepatocyte growth factor receptor (Homo sapiens, UniProt P08581).
Result: > 5.00

Task: Report pIC50 for "O=C(NCCO)c1ccc(-c2ccc3nnc(Cc4ccc5ncccc5c4)n3n2)cc1F" tested on Hepatocyte growth factor receptor (Homo sapiens, UniProt P08581).
Result: > 7.00

Task: Report pIC50 for "c1ccc(-c2ccc3nnc(CCc4ccc5ncccc5c4)n3n2)cc1" tested on Hepatocyte growth factor receptor (Homo sapiens, UniProt P08581).
Result: 4.30 to 5.00

Task: Report pIC50 for "Nc1ncc(-c2cnn(C3CCNCC3)c2)cc1-c1nc2ccc(Cl)cc2s1" tested on Hepatocyte growth factor receptor (Homo sapiens, UniProt P08581).
Result: 6.00 to 7.00

Task: Report pIC50 for "Nc1nc2cc(F)c(Cc3nnc4ccc(-c5cnn(C6CC6)c5)nn34)cc2s1" tested on Hepatocyte growth factor receptor (Homo sapiens, UniProt P08581).
Result: 7.42

Task: Report pIC50 for "Nc1ncc(-c2cnn(C3CCNCC3)c2)cc1-c1nc2cccc(Br)c2s1" tested on Hepatocyte growth factor receptor (Homo sapiens, UniProt P08581).
Result: ≥ 7.00

Task: Report pIC50 for "c1cc2cc(-c3c[nH]c4ncc(-c5ccc6[nH]cnc6c5)cc34)ccc2[nH]1" tested on Hepatocyte growth factor receptor (Homo sapiens, UniProt P08581).
Result: 5.30 to 6.00
